# tgt: NS3 genotype 3a protease (UniProt Q81258)
# Construct: Purified NS3 protease domain (amino acids 1-181) of the genotype 1b and 3a virus were generated as above; fused on or other part: N-terminal hexahistidine tag and rTEV protease cleavage site (vector p28-N6H-Tev-NS3(181)3)
# Sequence (Q81258 1033-1663): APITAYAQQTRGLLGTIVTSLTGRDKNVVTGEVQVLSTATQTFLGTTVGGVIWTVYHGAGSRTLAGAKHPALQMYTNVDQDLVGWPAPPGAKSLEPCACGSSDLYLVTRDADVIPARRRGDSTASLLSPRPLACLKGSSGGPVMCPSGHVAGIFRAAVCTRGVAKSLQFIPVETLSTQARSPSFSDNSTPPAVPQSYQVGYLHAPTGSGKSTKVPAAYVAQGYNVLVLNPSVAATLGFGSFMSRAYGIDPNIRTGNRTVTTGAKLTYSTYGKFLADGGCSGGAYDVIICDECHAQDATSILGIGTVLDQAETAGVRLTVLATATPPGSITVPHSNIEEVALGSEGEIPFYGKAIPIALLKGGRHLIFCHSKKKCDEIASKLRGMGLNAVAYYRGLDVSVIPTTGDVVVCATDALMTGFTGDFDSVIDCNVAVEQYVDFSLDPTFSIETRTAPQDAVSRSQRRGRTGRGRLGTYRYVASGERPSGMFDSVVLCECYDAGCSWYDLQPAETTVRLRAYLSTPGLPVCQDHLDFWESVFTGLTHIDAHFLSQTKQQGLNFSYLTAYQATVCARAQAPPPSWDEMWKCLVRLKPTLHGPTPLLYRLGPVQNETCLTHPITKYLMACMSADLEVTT
# experiment-description: Ki determination, NS3 protease genotype 3a (fluorogenic depsipeptide substrate)
# Type: biochemical, hepatitis C virus
# settings: read-out: Ki 3A, 200 pM enzyme, 20 μM NS4A peptide, 2 μM substrate
Please go through the items and note down their Ki.
Give your result in nM as a bare value.

Indicate its recorded Ki; the compound in question is COc1ccc2nc3c(nc2c1)O[C@H]1CN(C(=O)[C@H](C(C)(C)C)NC(=O)O[C@@H]2C[C@H]2CCCCC3)[C@H](C(=O)N[C@]2(C(=O)NS(=O)(=O)C3CC3)C[C@H]2C(F)F)[C@@H]1C
0.13

Specify reported Ki for the compound shown: CCC[C@@H]1[C@@H]2CN(C(=O)[C@H](C(C)(C)C)NC(=O)O[C@@H]3C[C@H]3CCCCC(F)(F)c3nc4ccc(OC)cc4nc3O2)[C@@H]1C(=O)N[C@]1(C(=O)NS(=O)(=O)C2(C)CC2)C[C@H]1C(F)F
0.07

Quickly give me recorded Ki for CC[C@@H]1C[C@]1(NC(=O)[C@@H]1[C@H](C)[C@@H]2CN1C(=O)[C@H](C(C)(C)C)NC(=O)O[C@@H]1C[C@H]1CCCCCc1nc3ccc(OC)cc3nc1O2)C(=O)NS(=O)(=O)C1(C)CC1
0.45

Tell me its Ki given COc1ccc2nc3c(nc2c1)O[C@H]1CN(C(=O)[C@H](C(C)(C)C)NC(=O)O[C@@H]2C[C@H]2CCCCC3)[C@H](C(=O)N[C@]2(C(=O)NS(=O)(=O)C3(C)CC3)C[C@H]2CC(F)F)[C@@H]1C as the entry.
0.39

---

# tgt: NS3 genotype 3a protease (UniProt Q81258)
# Construct: Purified NS3 protease domain (amino acids 1-181) of the genotype 1b and 3a virus were generated as above; fused on or other part: N-terminal hexahistidine tag and rTEV protease cleavage site (vector p28-N6H-Tev-NS3(181)3)
# experiment-description: Ki determination, NS3 protease genotype 3a (fluorogenic depsipeptide substrate)
# Format: biochemical, hepatitis C virus
# settings: 200 pM enzyme, 20 μM NS4A peptide, 2 μM substrate, read-out: Ki 3A
quantity-name: pKi
Convention used: pKi is expressed as -log10 of the molar concentration.

Assign pKi to the following record: CC[C@@H]1[C@@H]2CN(C(=O)[C@H](C(C)(C)C)NC(=O)O[C@@H]3C[C@H]3CCCCCc3nc4ccc(OC)cc4nc3O2)[C@@H]1C(=O)N[C@]1(C(=O)NS(=O)(=O)C2CC2)C[C@H]1C(F)F [Example 2]
10.40

Provide measured pKi value, entry: CC[C@@H]1[C@@H]2CN(C(=O)[C@H](C(C)(C)C)NC(=O)O[C@@H]3C[C@H]3CCCCC(F)(F)c3nc4ccc(OC)cc4nc3O2)[C@@H]1C(=O)N[C@]1(C(=O)NS(=O)(=O)C2CC2)C[C@H]1CC [Example 34]
9.55

---

# tgt: NS3 genotype 3a protease (UniProt Q81258)
# Construct: Purified NS3 protease domain (amino acids 1-181) of the genotype 1b and 3a virus were generated as above; fused on or other part: N-terminal hexahistidine tag and rTEV protease cleavage site (vector p28-N6H-Tev-NS3(181)3)
# experiment-description: Ki determination, NS3 protease genotype 3a (fluorogenic depsipeptide substrate)
# Format: biochemical, hepatitis C virus
# settings: 200 pM enzyme, 20 μM NS4A peptide, 2 μM substrate, read-out: Ki 3A
I'd appreciate it if you could supply Ki values for the items below.
Give the value in nM but do not write nM after it.

Supply recorded Ki for CC[C@@H]1[C@@H]2CN(C(=O)[C@H](C(C)(C)C)NC(=O)O[C@@H]3C[C@H]3CCCCC(F)(F)c3nc4ccccc4nc3O2)[C@@H]1C(=O)N[C@]1(C(=O)NS(=O)(=O)C2CC2)C[C@H]1C(F)F [Example 53] here.
0.09

State, in one line, measured Ki of CC[C@@H]1[C@@H]2CN(C(=O)[C@H](C(C)(C)C)NC(=O)O[C@@H]3C[C@H]3CCCCC(F)(F)c3nc4ccc(C#N)cc4nc3O2)[C@@H]1C(=O)N[C@]1(C(=O)NS(=O)(=O)C2(C)CC2)C[C@H]1C(F)F [Example 87]
0.05

---

# tgt: NS3 genotype 3a protease (UniProt Q81258)
# Construct: Purified NS3 protease domain (amino acids 1-181) of the genotype 1b and 3a virus were generated as above; fused on or other part: N-terminal hexahistidine tag and rTEV protease cleavage site (vector p28-N6H-Tev-NS3(181)3)
# experiment-description: Ki determination, NS3 protease genotype 3a (fluorogenic depsipeptide substrate)
# Format: biochemical, hepatitis C virus
# settings: 200 pM enzyme, 20 μM NS4A peptide, 2 μM substrate, read-out: Ki 3A
# Description: The coding sequences for the genotype 3 HCV protease domain was amplified by RT-PCR using a Titan One Tube RT-PCR Kit (Roche, Indianapolis, Ind.) and RNA extracted from HCV-positive human serum (BBI Diagnostics, MA) using a QIAmp UltraSens Virus Kit (Qiagen, Valencia, Calif.). 5′ PCR primers were designed to encode N-terminal hexahistidine tags and to insert in-frame rTEV protease cleavage sites into the NS3 protease coding sequences. […]
quantity-name: pKi
// scale note: pKi = -log10(conc_M); give the bare number

Indicate the recorded pKi value for this compound: CC[C@@H]1[C@@H]2CN(C(=O)[C@H](C(C)(C)C)NC(=O)O[C@]3(C)CCC[C@H]3CCCCCc3nc4ccc(OC)cc4nc3O2)[C@@H]1C(=O)N[C@]1(C(=O)NS(=O)(=O)C2(C)CC2)C[C@H]1CCF
8.89

Supply recorded pKi for COc1ccc2nc3c(nc2c1)O[C@H]1CN(C(=O)[C@H](C(C)(C)C)NC(=O)O[C@@H]2C[C@H]2CCCCC3F)[C@H](C(=O)N[C@]2(C(=O)NS(=O)(=O)C3(C)CC3)C[C@H]2C(F)F)[C@@H]1C (stereo partly shown) here.
9.72

Note down pKi recorded for CC[C@@H]1[C@@H]2CN(C(=O)[C@H](C(C)(C)C)NC(=O)O[C@@H]3C[C@H]3CC/C=C/C(F)(F)c3nc4ccc(C#N)cc4nc3O2)[C@@H]1C(=O)N[C@]1(C(=O)NS(=O)(=O)C2(C)CC2)C[C@H]1C(F)F
10.10

Hello, please tell me recorded pKi for this one: CC[C@@H]1[C@@H]2CN(C(=O)[C@H](C(C)(C)C)NC(=O)O[C@@H]3C[C@H]3CCCCCc3nc4ccc(OC)cc4nc3O2)[C@@H]1C(=O)N[C@]1(C(=O)NS(=O)(=O)C2(Cl)CC2)C[C@H]1C(F)F
9.92

---

# tgt: NS3 genotype 3a protease (UniProt Q81258)
# Construct: Purified NS3 protease domain (amino acids 1-181) of the genotype 1b and 3a virus were generated as above; fused on or other part: N-terminal hexahistidine tag and rTEV protease cleavage site (vector p28-N6H-Tev-NS3(181)3)
# experiment-description: Ki determination, NS3 protease genotype 3a (fluorogenic depsipeptide substrate)
# Format: biochemical, hepatitis C virus
# settings: 200 pM enzyme, 20 μM NS4A peptide, 2 μM substrate, read-out: Ki 3A
Exercise: state measured Ki for each of the compounds provided.
Report the value in nM with no unit label.

Answer with the recorded Ki for the compound listed here: CC[C@@H]1[C@@H]2CN(C(=O)[C@H](C(C)(C)C)NC(=O)O[C@@H]3CCC[C@H]3CCCCCc3nc4ccc(OC)cc4nc3O2)[C@@H]1C(=O)N[C@]1(C(=O)NS(=O)(=O)C2(C)CC2)C[C@H]1C(F)F [Example 6]
0.62

Return the recorded Ki value; entry: COc1ccc2nc3c(nc2c1)O[C@H]1CN(C(=O)[C@H](C(C)(C)C)NC(=O)O[C@H]2CC4CC(C4)[C@@H]2CCCCC3)[C@H](C(=O)N[C@]2(C(=O)NS(=O)(=O)C3CC3)C[C@H]2C(F)F)[C@@H]1C [Example 72]
4.1

Answer with reported Ki of CC[C@@H]1[C@@H]2CN(C(=O)[C@H](C(C)(C)C)NC(=O)O[C@@H]3C[C@H]3CCCCC(F)(F)c3nc4ccccc4nc3O2)[C@@H]1C(=O)N[C@]1(C(=O)NS(=O)(=O)C2CC2)C[C@H]1CC [Example 54]
0.5

Entry CC[C@@H]1[C@@H]2CN(C(=O)[C@H](C(C)(C)C)NC(=O)O[C@@H]3C[C@H]3CCCCC(F)(F)c3nc4ccc(OC(F)F)cc4nc3O2)[C@@H]1C(=O)N[C@]1(C(=O)NS(=O)(=O)C2(C)CC2)C[C@H]1C(F)F [Example 85] needs its Ki filled in; supply it.
0.03

Data credit: patent US20150175655A1
